Source of measurements: patent US20180289678A1

assay: Pharmacokinetic profile in fasting humans, ranges over Studies .1 to .5; type: in vivo; conditions: human, plasma, oral, 25 mg, dose of 25.0 mg, read-out: geometric mean AUC
EXPERIMENTAL_ENDPOINT: AUC

[[record]]
smiles_code = "OC[C@H]1O[C@@H](c2ccc(Cl)c(Cc3ccc(O[C@H]4CCOC4)cc3)c2)[C@H](O)[C@@H](O)[C@@H]1O"
experimental_endpoint = "AUC"
assay_result = "3.75 to 6.13 µM·h"


* * *

assay: Pharmacokinetic profile in fasting humans, ranges over Studies .1 to .5; type: in vivo; settings: human, plasma, oral, 50 mg, dose of 50.0 mg, read-out: AUC
EXPERIMENTAL_ENDPOINT: AUC

[[record]]
smiles_code = "OC[C@H]1O[C@@H](c2ccc(Cl)c(Cc3ccc(O[C@H]4CCOC4)cc3)c2)[C@H](O)[C@@H](O)[C@@H]1O"
assay_result = "6.45 to 14.1 µM·h"


* * *

Test: Study .1: single dose study in healthy volunteers, pharmacokinetic parameters
Format: in vivo, human
Conditions: human, plasma, oral, 10 mg, 10 mg single dose, Study .1, fasted; read-out: AUC0-inf gMean
Description: 5. Pharmacokinetic Parameters The pharmacokinetic parameters of pharmaceutical compositions and pharmaceutical dosage forms are assessed in healthy volunteer and patient populations. […] For the quantification of plasma concentrations of the active ingredient, 2.7 mL of blood was collected and transferred into an EDTA (ethylendiaminetetraacetic acid)-anticoagulant blood drawing tube. […] Concentrations of active substance in EDTA human plasma samples were quantitated using a HPLC/MS/MS method. […]
EXPERIMENTAL_ENDPOINT: AUC(0-inf) (µM·h)

[[record]]
compound = "OC[C@H]1O[C@@H](c2ccc(Cl)c(Cc3ccc(O[C@H]4CCOC4)cc3)c2)[C@H](O)[C@@H](O)[C@@H]1O [Compound (I.9)]"
experimental_endpoint = "AUC(0-inf)"
assay_result = 1.69


* * *

Test: Study .5: single dose study in healthy Japanese volunteers, pharmacokinetic parameters
Format: in vivo, human
Details: human, plasma, oral, 10 mg, 10 mg single dose, Study .5, fasted; read-out: Cmax gMean
Method: 5. Pharmacokinetic Parameters The pharmacokinetic parameters of pharmaceutical compositions and pharmaceutical dosage forms are assessed in healthy volunteer and patient populations. […] For the quantification of plasma concentrations of the active ingredient, 2.7 mL of blood was collected and transferred into an EDTA (ethylendiaminetetraacetic acid)-anticoagulant blood drawing tube. […] Concentrations of active substance in EDTA human plasma samples were quantitated using a HPLC/MS/MS method. […]
EXPERIMENTAL_ENDPOINT: Cmax (nM)

[[record]]
compound = "OC[C@H]1O[C@@H](c2ccc(Cl)c(Cc3ccc(O[C@H]4CCOC4)cc3)c2)[C@H](O)[C@@H](O)[C@@H]1O [Compound (I.9)]"
experimental_endpoint = "Cmax"
assay_result = 372


* * *

assay: Study .1: single dose study in healthy volunteers, pharmacokinetic parameters; type: in vivo, human; conditions: 10 mg single dose, Study .1, fasted; read-out: Cmax Max
EXPERIMENTAL_ENDPOINT: Cmax

[[record]]
molecule = "OC[C@H]1O[C@@H](c2ccc(Cl)c(Cc3ccc(O[C@H]4CCOC4)cc3)c2)[C@H](O)[C@@H](O)[C@@H]1O [Compound (I.9)]"
assay_result = "268 nM"


* * *

assay: Study .2: multiple rising dose trial in diabetic patients, once daily for 8 days, pharmacokinetic parameters; format: in vivo, human; settings: human, plasma, oral, 10 mg, 10 mg single dose, Study .2, fasted; read-out: AUC0-inf Mean
EXPERIMENTAL_ENDPOINT: AUC(0-inf) (µM·h)

[[record]]
molecule = "OC[C@H]1O[C@@H](c2ccc(Cl)c(Cc3ccc(O[C@H]4CCOC4)cc3)c2)[C@H](O)[C@@H](O)[C@@H]1O [Compound (I.9)]"
value_units = "µM·h"
assay_result = 1.91


* * *

experiment: Study .5: single dose study in healthy Japanese volunteers, pharmacokinetic parameters; type: in vivo, human; conditions: human, plasma, oral, 25 mg, 25 mg single dose, Study .5, fasted; read-out: tmax Median
EXPERIMENTAL_ENDPOINT: Tmax (h)

[[record]]
smiles_code = "OC[C@H]1O[C@@H](c2ccc(Cl)c(Cc3ccc(O[C@H]4CCOC4)cc3)c2)[C@H](O)[C@@H](O)[C@@H]1O"
value_units = "h"
assay_result = 2


* * *

test: Study .2: multiple rising dose trial in diabetic patients, once daily for 8 days, pharmacokinetic parameters; assay type: in vivo, human; details: human, plasma, oral, 10 mg, 10 mg single dose, Study .2, fasted; read-out: Cmax gMean
EXPERIMENTAL_ENDPOINT: Cmax (nM)

[[record]]
smiles_code = "OC[C@H]1O[C@@H](c2ccc(Cl)c(Cc3ccc(O[C@H]4CCOC4)cc3)c2)[C@H](O)[C@@H](O)[C@@H]1O"
assay_result = 240


* * *

assay: Study .4: 4-week treatment of diabetic patients, once daily, pharmacokinetic parameters; format: in vivo, human; settings: human, plasma, oral, 25 mg, 25 mg once daily, steady state, Study .4, fasted; read-out: Cmax,ss gMean
EXPERIMENTAL_ENDPOINT: Cmax

[[record]]
compound = "OC[C@H]1O[C@@H](c2ccc(Cl)c(Cc3ccc(O[C@H]4CCOC4)cc3)c2)[C@H](O)[C@@H](O)[C@@H]1O [Compound (I.9)]"
experimental_endpoint = "Cmax"
assay_result = "676 nM"


* * *

assay: Study .5: single dose study in healthy Japanese volunteers, pharmacokinetic parameters; assay type: in vivo, human; conditions: human, plasma, oral, 5 mg, 5 mg single dose, Study .5, fasted; read-out: Cmax Mean
EXPERIMENTAL_ENDPOINT: Cmax (nM)

[[record]]
smiles_code = "OC[C@H]1O[C@@H](c2ccc(Cl)c(Cc3ccc(O[C@H]4CCOC4)cc3)c2)[C@H](O)[C@@H](O)[C@@H]1O"
experimental_endpoint = "Cmax"
value_units = "nM"
assay_result = 166


* * *

assay: Study .2: multiple rising dose trial in diabetic patients, once daily for 8 days, pharmacokinetic parameters; assay type: in vivo, human; conditions: human, plasma, oral, 2.5 mg, 2.5 mg once daily, steady state, Study .2, fasted; read-out: tmax,ss g Mean
EXPERIMENTAL_ENDPOINT: Tmax (h)

[[record]]
smiles_code = "OC[C@H]1O[C@@H](c2ccc(Cl)c(Cc3ccc(O[C@H]4CCOC4)cc3)c2)[C@H](O)[C@@H](O)[C@@H]1O"
assay_result = 1.28


* * *

test: Study .1: single dose study in healthy volunteers, pharmacokinetic parameters; type: in vivo, human; conditions: human, plasma, oral, 25 mg, 25 mg single dose, Study .1, fasted; read-out: AUC0-inf gMean
EXPERIMENTAL_ENDPOINT: AUC(0-inf) (µM·h)

[[record]]
smiles_code = "OC[C@H]1O[C@@H](c2ccc(Cl)c(Cc3ccc(O[C@H]4CCOC4)cc3)c2)[C@H](O)[C@@H](O)[C@@H]1O"
assay_result = 3.75


* * *

experiment: Study .2: multiple rising dose trial in diabetic patients, once daily for 8 days, pharmacokinetic parameters; format: in vivo, human; details: human, plasma, oral, 10 mg, 10 mg single dose, Study .2, fasted; read-out: Cmax Median
EXPERIMENTAL_ENDPOINT: Cmax (nM)

[[record]]
smiles_code = "OC[C@H]1O[C@@H](c2ccc(Cl)c(Cc3ccc(O[C@H]4CCOC4)cc3)c2)[C@H](O)[C@@H](O)[C@@H]1O"
value_units = "nM"
assay_result = 233


* * *

assay: Study .5: single dose study in healthy Japanese volunteers, pharmacokinetic parameters; assay type: in vivo, human; conditions: 5 mg single dose, Study .5, fasted; read-out: Cmax Min
EXPERIMENTAL_ENDPOINT: Cmax

[[record]]
smiles_code = "OC[C@H]1O[C@@H](c2ccc(Cl)c(Cc3ccc(O[C@H]4CCOC4)cc3)c2)[C@H](O)[C@@H](O)[C@@H]1O"
experimental_endpoint = "Cmax"
assay_result = "123 nM"


* * *

assay: Study .2: multiple rising dose trial in diabetic patients, once daily for 8 days, pharmacokinetic parameters; assay type: in vivo, human; conditions: 10 mg single dose, Study .2, fasted; read-out: Cmax Mean
EXPERIMENTAL_ENDPOINT: Cmax (nM)

[[record]]
smiles_code = "OC[C@H]1O[C@@H](c2ccc(Cl)c(Cc3ccc(O[C@H]4CCOC4)cc3)c2)[C@H](O)[C@@H](O)[C@@H]1O"
experimental_endpoint = "Cmax"
assay_result = 245


* * *

assay: Study .2: multiple rising dose trial in diabetic patients, once daily for 8 days, pharmacokinetic parameters; assay type: in vivo, human; settings: human, plasma, oral, 10 mg, 10 mg once daily, steady state, Study .2, fasted; read-out: tmax,ss Mean
EXPERIMENTAL_ENDPOINT: Tmax (h)

[[record]]
smiles_code = "OC[C@H]1O[C@@H](c2ccc(Cl)c(Cc3ccc(O[C@H]4CCOC4)cc3)c2)[C@H](O)[C@@H](O)[C@@H]1O"
experimental_endpoint = "Tmax"
assay_result = 1.43


* * *

test: Pharmacokinetic profile in fasting humans, ranges over Studies .1 to .5; type: in vivo; conditions: human, plasma, oral, 10 mg, single dose of 10.0 mg, read-out: geometric mean AUC0-inf
EXPERIMENTAL_ENDPOINT: AUC(0-inf)

[[record]]
compound = "OC[C@H]1O[C@@H](c2ccc(Cl)c(Cc3ccc(O[C@H]4CCOC4)cc3)c2)[C@H](O)[C@@H](O)[C@@H]1O [Compound (I.9)]"
assay_result = "1.69 to 2.66 µM·h"

